Measured z-score by item
Assay: modulators of S6 phosphorylation in cells, primary screen, cell-based, A549, cytoblot, luminescence, serum-stimulated (AID 1158);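 note: serum-stimulated A549 lung adenocarcinoma cells; signal is phosphorylated S6 detected by cytoblot immunostaining with HRP secondary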
Conditions: A549 phospho-S6 cytoblot, 5 h, higher = more signal
Give the value as a plain number.

Q: Read off the recorded z-score for `CC(C)CON=C1C[C@@H](O)[C@@H](O)[C@@H]2[C@@H]3C(=O)N(C[C@@H]4CCCO4)C(=O)[C@@H]3CC[C@H]12`
Ans: -0.383

Q: Read off the recorded z-score for `CO[C@H]1COC(=O)[C@H](C)COC(=O)CC=C[C@@H](C)[C@H](OC)COC(=O)CC=C[C@@H]1C`
Ans: 0.648

Q: Read off the recorded z-score for `[N-]=[N+]=NCc1ccccc1[C@@H]1OC(c2ccc(OCCCO)cc2)=N[C@]1(Cc1ccccc1)C(=O)N1CCOCC1`
Ans: 0.131

Q: Read off the recorded z-score for `CCCNC(=O)OC[C@H]1O[C@H](CCON=CC[C@@H]2C=C[C@H](OC(C)=O)[C@@H](COC(C)=O)O2)C=C[C@@H]1Oc1ccc(OC)cc1`
Ans: -0.397

* * *

Test: S. cerevisiae RM11-1a growth modifiers, primary screen, strain RM11-1a, OD600, basal, 24 h (AID 1177);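 note: cultures grown under basal conditions with no added stressor; test concentration not given here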
Conditions: OD600, 24 h, higher = more signal, called active from +8 up or from −8 down
# label = Yes if z-score >= -0.2 else No

Consider the worked cases shown below.
Q: Check if z-score >= -0.2 (inclusive). Item: `C=CC[C@@H]1C=C[C@H](ON=C(C)CCN2CCc3nc(CC)c(CC)cc3C2)[C@@H](CO)O1`
Ans: Yes

Q: Check if z-score >= -0.2 (inclusive). Item: `CO[C@@H]1COC(=O)CC=C[C@@H](C)[C@@H]2C=C[C@H](O)[C@@H](COC(=O)[C@H](C)NC(=O)CC=C[C@H]1C)O2`
Ans: No

Q: Check if z-score >= -0.2 (inclusive). Item: `O=C1[C@H]2[C@H]3[C@H](O)[C@H](O)CC(=NOC[C@@H](O)COCc4ccco4)[C@H]3CC[C@H]2C(=O)N1c1cccc(Oc2ccccc2)c1`
Ans: Yes

Q: Check if z-score >= -0.2 (inclusive). Item: `COC(=O)[C@@]1(Cc2ccc(F)cc2)[C@H]2c3cc(C(=O)N(C)C)n(Cc4ccc(OC)c(OC)c4)c3C[C@H]2CN1C(=O)c1ccccc1`
Ans: Yes

Q: Check if z-score >= -0.2 (inclusive). Item: `CCN1C(=O)[C@H]2[C@H]3[C@H](O)[C@H](O)CC(=NO[C@@H]4O[C@H](CO)[C@@H](O)[C@H](O)[C@H]4O)[C@@H]3CC[C@H]2C1=O`
Ans: No

Q: Check if z-score >= -0.2 (inclusive). Item: `CC(=O)OC[C@H]1O[C@H](CCON=C(C)CCC(=O)OC[C@H]2O[C@H](C#Cc3ccccc3)C=C[C@@H]2Oc2ccc(C)cc2)C=C[C@@H]1OC(C)=O`
Ans: Yes

Turning now to a further record.
Q: Check if z-score >= -0.2 (inclusive). Item: `O=C1C[C@@H](O)[C@@H](O)[C@@H]2[C@@H]3C(=O)N(c4ccc(F)cc4F)C(=O)[C@@H]3CC[C@@H]12`
Ans: No

* * *

Measured composite z-score by item
Test: small-molecule microarray binders of probe aShh, primary screen, biochemical, biotinylated probe, 635/667 nm fluorescence (AID 1114);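 note: probe is biotin-labelled aShh protein from a stem cell growth factor screen; measures binding of labelled protein to compounds printed on the slide; score merges feature fluorescence at 667 nm with signal-to-noise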
Conditions: higher = more signal

Q: Read off the recorded composite z-score for `Cc1ccc(S[C@]2(C(=O)NCC(F)(F)F)CC(=O)N(Cc3ccccc3Cl)[C@@H]2c2ccc(CO)cc2I)cc1`
Ans: -0.0035

Others:
Q: Read off the recorded composite z-score for `CCCC[C@@H]1C[C@H]1[C@@H](NS(=O)(=O)c1cccc2cccnc12)c1ccc(-c2ccccc2)cc1`
Ans: -0.01

Q: Read off the recorded composite z-score for `CC(CCC(=O)OC[C@H]1O[C@H](C#Cc2ccccc2)C=C[C@@H]1Oc1ccc(C)cc1)=NO[C@@H](C)c1cn([C@H](CO)Cc2ccccc2)nn1`
Ans: 0.108
